# PROTOCOL DETAILS: physchem
# RUN PARAMETERS: organic solvent or mixture, Solubility in tCIMe
Overview of recorded solubility for various compounds

Query: Given `CC(=O)O[C@@]12CO[C@@H]1C[C@H](O)[C@@]1(C)C(=O)[C@H](O)C3=C(C)[C@@H](OC(=O)[C@H](O)[C@@H](NC(=O)OC(C)(C)C)c4ccccc4)C[C@@](O)([C@@H](OC(=O)c4ccccc4)[C@H]21)C3(C)C` , respond with its solubility.
Result: ~20 mg/mL

Query: Given `CCS(=O)(=O)Nc1ccc2c(c1)/C(=C(/Nc1ccc(CN3CCCCC3)cc1)c1ccccc1)C(=O)N2` , respond with its solubility.
Result: ~7.5 mg/mL

Query: Given `CN(C)C/C=C/C(=O)Nc1cc2c(Nc3ccc(F)c(Cl)c3)ncnc2cc1O[C@H]1CCOC1` , respond with its solubility.
Result: ~100 mg/mL

Query: Given `CCN(CC)c1ccc2nc3c4ccccc4c(=O)cc-3oc2c1` , respond with its solubility.
Result: ~50 mg/mL

Query: Given `CC(=O)O[C@H]1C(=O)[C@@]2(C)[C@H]([C@H](OC(=O)c3ccccc3)[C@]3(O)C[C@H](OC(=O)[C@H](O)[C@@H](NC(=O)c4ccccc4)c4ccccc4)C(C)=C1C3(C)C)[C@]1(OC(C)=O)CO[C@@H]1C[C@@H]2O` , respond with its solubility.
Result: ~350 mg/mL

----------
# PROTOCOL DETAILS: Microscopy scoring of spontaneously and US activated bubbles
# Assay type: physicochemical
# Parameters: key: Score 0 = no or very limited; Score 1 = medium and; Score 2 = high
# RUN PARAMETERS: oil as C2 microdroplet phase mixed with C1; insonated 5 s, nominal MI 0.8, 2.25 MHz; 37° C.
Overview of recorded US Act. (amount of US activated bubbles) for various compounds
Answer with a number only.

Query: Given `FC(F)(F)C1(F)C(F)(F)C(F)(F)C(F)(F)C1(F)F` , respond with its US Act. (amount of US activated bubbles).
Result: 1

Continuing:
Query: Given `FC(F)(F)C(F)(F)C(F)(F)C(F)(F)C(F)(F)C(F)(F)F` , respond with its US Act. (amount of US activated bubbles).
Result: 1

Query: Given `FC(F)(F)C(F)(F)C(F)(F)C(F)(F)C(F)(F)C(F)(F)C(F)(F)F` , respond with its US Act. (amount of US activated bubbles).
Result: 2

Query: Given `C=CC(F)(F)C(F)(F)C(F)(F)C(F)(F)F` , respond with its US Act. (amount of US activated bubbles).
Result: 1

Query: Given FC(C(F)C(F)(F)C(F)(F)F)C(F)(F)F (stereo not drawn) , respond with its US Act. (amount of US activated bubbles).
Result: 0

Query: Given `FC(F)C(F)(F)C(F)(F)C(F)(F)C(F)(F)C(F)(F)F` , respond with its US Act. (amount of US activated bubbles).
Result: 1

----------
# PROTOCOL DETAILS: physchem
# RUN PARAMETERS: organic solvent or mixture, solubility in solvent mixture
MEASURED PARAMETER: solubility

Query: Given `CCN(CC)c1ccc2nc3c4ccccc4c(=O)cc-3oc2c1` , respond with its solubility.
Result: > 5 mg/mL

Next, consider the following compound.
Query: Given `CC(=O)O[C@H]1C(=O)[C@@]2(C)[C@H]([C@H](OC(=O)c3ccccc3)[C@]3(O)C[C@H](OC(=O)[C@H](O)[C@@H](NC(=O)c4ccccc4)c4ccccc4)C(C)=C1C3(C)C)[C@]1(OC(C)=O)CO[C@@H]1C[C@@H]2O` , respond with its solubility.
Result: > 25 mg/mL
